Molecular target: human neutrophil elastase (HNE) (Homo sapiens, UniProt P08246 30-267)
Sequence (P08246 30-267): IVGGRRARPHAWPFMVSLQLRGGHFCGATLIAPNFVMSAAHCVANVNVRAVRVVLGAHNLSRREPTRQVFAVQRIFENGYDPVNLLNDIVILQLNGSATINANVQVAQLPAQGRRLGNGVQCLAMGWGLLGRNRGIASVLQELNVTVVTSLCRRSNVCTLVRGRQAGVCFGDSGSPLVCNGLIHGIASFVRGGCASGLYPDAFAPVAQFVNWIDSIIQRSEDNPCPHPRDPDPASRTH
Test: enzyme inhibition; elastin-Congo red, 100 nM HNE; E6/E12 values swapped in a second sentence; ELISA: PBS pH 7.4, 5 mM MgCl2, 10 mM KCl, 0.01% Tween 20, 20 min (temperature not stated); inhibition: 50 mM Tris pH 7.5, 150 mM NaCl, 10 mM KCl, 5 mM MgCl2, 0.02% Tween 20, 37 C
Conditions: protein: commercial; label: biotin (ELISA); predicted: 2 G4, 2 hairpin loops (not tested)
Assay Metric: pIC50
Expect pIC50 as a plain number equal to -log10 of the molar concentration.

// query Any idea what its pIC50 is? The binder is aptamer E12 (ssDNA) DNA: CATGCTTCCCCAGGGAGATGGGCGTGGGGGTTGGGTATGGTGCTTGAGGGGCCTGGAGGAACATGCGTCGCAAAC
// result 6.75
